- TARGET_OF_ASSAY: 5-hydroxytryptamine receptor 2C (Homo sapiens, UniProt P28335)
- Sequence (P28335 whole entry): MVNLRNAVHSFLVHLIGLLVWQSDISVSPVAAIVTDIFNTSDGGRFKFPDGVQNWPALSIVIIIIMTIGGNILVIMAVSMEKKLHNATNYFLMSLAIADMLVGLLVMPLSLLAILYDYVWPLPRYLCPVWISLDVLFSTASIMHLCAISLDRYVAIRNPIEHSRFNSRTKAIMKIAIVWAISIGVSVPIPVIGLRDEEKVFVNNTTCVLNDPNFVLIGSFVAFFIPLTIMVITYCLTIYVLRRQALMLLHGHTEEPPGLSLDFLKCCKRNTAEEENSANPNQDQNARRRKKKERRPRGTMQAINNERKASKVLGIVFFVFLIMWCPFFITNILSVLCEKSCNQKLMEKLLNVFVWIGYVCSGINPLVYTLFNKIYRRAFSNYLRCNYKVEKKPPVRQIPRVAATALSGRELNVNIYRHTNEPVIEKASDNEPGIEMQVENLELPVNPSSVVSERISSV
ENDPOINT: Ki (nM)
The reply should be a number in nM, with the unit left off.

GET /values?readout=Ki&item= `Cc1nc(-c2ccc(-c3ccc(C(=O)N4CCc5cc6c(cc54)C4(CCN(C)CC4)CO6)cc3)c(C)c2)no1`
631

* * *

- TARGET_OF_ASSAY: 5-hydroxytryptamine receptor 1A (Homo sapiens)
- Sequence (P08908 whole entry): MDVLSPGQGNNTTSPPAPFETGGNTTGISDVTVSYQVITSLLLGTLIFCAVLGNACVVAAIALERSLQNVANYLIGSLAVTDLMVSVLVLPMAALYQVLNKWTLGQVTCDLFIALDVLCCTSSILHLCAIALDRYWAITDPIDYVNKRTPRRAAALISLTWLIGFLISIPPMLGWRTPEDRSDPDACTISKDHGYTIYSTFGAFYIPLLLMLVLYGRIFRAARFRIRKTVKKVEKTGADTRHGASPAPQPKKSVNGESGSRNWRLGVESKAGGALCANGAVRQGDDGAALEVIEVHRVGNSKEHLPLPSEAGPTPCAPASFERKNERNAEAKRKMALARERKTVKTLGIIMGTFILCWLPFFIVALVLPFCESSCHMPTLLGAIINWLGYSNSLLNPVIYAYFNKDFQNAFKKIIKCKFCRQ
pKi: −log10 of the molar value.
ENDPOINT: pKi

Would you kindly share the measured pKi for `Cc1nc(-c2ccc(-c3ccc(C(=O)N4CCc5cc6c(cc54)C4(CCN(C)CC4)CO6)cc3)c(C)c2)no1` ?
< 5.50
